Origin of measurements: PubChem BioAssay (NCI)

System: IGROV1 ovarian
PROTOCOL TEXT: NCI tumour cell line growth inhibition, 48 h
Listed next: entries and their corresponding TGI.

Examples with answers:
[[record]]
compound = "Cc1nc(SCC(N)=O)c2sc(=S)n(-c3ccccc3)c2n1"
parameter = "TGI"
recorded_result = "> 10 µM"

[[record]]
compound = "CCC1(Br)C(=O)NC(=O)N(C2CC(O)C(CO)O2)C1N=[N+]=[N-] (stereo not drawn)"
parameter = "TGI"
recorded_result = "> 100 µM"


We now examine a further compound.
Could you please provide reported TGI for O=C1c2cccnc2S(=O)(=O)N1c1ccc([N+](=O)[O-])cc1 ? Thanks!
> 100 µM

###

Test system: NCI-H522 lung
PROTOCOL TEXT: NCI tumour cell line growth inhibition, 48 h
Listed next: entries and their corresponding TGI.

Could you please provide reported TGI for CC12CC3(C)CC(C)(C1)CC(N=[N+]=[N-])(C2)C3 ? Thanks!
> 100 µM

Could you please provide reported TGI for CCc1ccccc1NC(=O)C(=O)C(C(=O)c1ccc(OC)cc1)c1ccc(OC)cc1 (centres undefined) ? Thanks!
> 100 µM

Could you please provide reported TGI for O=C1c2ccccc2N2OC3(N4CCCC4)CCCC3C12c1ccccc1 (centres undefined) ? Thanks!
> 100 µM

Could you please provide reported TGI for COc1cc(-c2oc3ccccc3c(=O)c2O)cc(OC)c1OC ? Thanks!
> 80.3 µM

###

System: SK-MEL-2 melanoma
PROTOCOL TEXT: NCI tumour cell line growth inhibition, 48 h; in the data active = GI50 below about 0.43 µM; inactive = the rest
Give one outcome, nothing more. List: Y (active), N (inactive)

How was COc1ccc(OC)c(-c2cc(-c3ccccc3)nn2-c2ccc(S(=O)(=O)NC(C)=O)cc2)c1 classified in this test?
N

How was COc1cc(/C=C2\CN(C)CC3=C2Nc2nc(SC)[nH]c(=O)c2C3c2cc(OC)c(OC)c(OC)c2)cc(OC)c1OC (stereo unspecified) classified in this test?
N

How was CC1(C)N=C(N)N=C(N)N1c1ccc(CCc2ccccc2)c(Cl)c1 classified in this test?
N

How was Cn1cc(C2=C(c3cn(C)c4ccc(N)cc34)C(=O)NC2=O)c2ccccc21 classified in this test?
N

How was CC(C)N(C(C)C)[PH+]1O[PH+](N(C(C)C)C(C)C)O[PH+](N(C(C)C)C(C)C)O[PH+](N(C(C)C)C(C)C)O[PH+](N(C(C)C)C(C)C)O1.[C-]#[O+].[C-]#[O+].[C-]#[O+].[C-]#[O+].[C-]#[O+].[C-]#[O+].[C-]#[O+].[Cr].[Cr] (stereo unspecified) classified in this test?
N

How was CNC(=O)Nc1ccc(-c2nc(N3CCOCC3)nc3c2cnn3C2CCOCC2)cc1 classified in this test?
Y

###

Listed next: entries and their corresponding TGI.
Test system: HT29 colon
PROTOCOL TEXT: NCI tumour cell line growth inhibition, 48 h

Could you please provide reported TGI for COC(=O)c1ccc2c(c1)C(NC(C)=O)CCc1cc(OC)c(OC)c(OC)c1-2 (stereo not drawn) ? Thanks!
1.28 µM

Could you please provide reported TGI for O=C1CS/C(=N/N=C/c2cn(Cc3ccc(Cl)cc3Cl)c3ccccc23)N1 ? Thanks!
> 100 µM

Could you please provide reported TGI for CCCCCCCCCCCCNC(=O)CCC(NC(=O)c1ccc(N(C)Cc2cnc3nc(N)nc(N)c3n2)cc1)C(=O)NCCCCCCCCCCCC (stereo not drawn) ? Thanks!
> 100 µM

###

System: KM12 colon
PROTOCOL TEXT: NCI tumour cell line growth inhibition, 48 h
PARAMETER: TGI

Examples with answers:
[[record]]
compound = "O=C(CC(C(=O)c1cccs1)c1ccc2c(c1)OCO2)c1ccc(Br)cc1 (stereo unspecified)"
assayed_target = "KM12 colon"
recorded_result = "> 100 µM"

[[record]]
compound = "Cc1cn(CCCCCOC(=O)NC(CCCNC(N)=O)C(=O)O)c(=O)[nH]c1=O (stereo unspecified)"
assayed_target = "KM12 colon"
recorded_result = "> 100 µM"

[[record]]
compound = "O=C1[C@@H](c2ccc(Cl)cc2)[C@H]2CC=C[C@H]2N1O"
assayed_target = "KM12 colon"
recorded_result = "> 100 µM"

[[record]]
compound = "CC(=O)c1cccc(N(/C=C/C(=O)C(F)(F)F)CC(=O)c2ccc(Cl)cc2)c1"
assayed_target = "KM12 colon"
recorded_result = "> 100 µM"

[[record]]
compound = "COc1ccc([C@H]2CC(=O)N3CCCC3N2)cc1 (stereo partly specified)"
assayed_target = "KM12 colon"
recorded_result = "> 100 µM"

[[record]]
compound = "COc1cc2c3c(cc(Cl)nc3c1OC)C(=O)C(=O)N2"
assayed_target = "KM12 colon"
recorded_result = "30.3 µM"

[[record]]
compound = "CC1(C)C(=O)C(O)=CC2C1=CCC1C2(C)C(=O)CC2(C)C(C(C)(O)C(=O)CC(O)C(C)(C)O)C(O)CC12C (stereo unspecified)"
assayed_target = "KM12 colon"
recorded_result = "> 100 µM"

[[record]]
compound = "CCCCCCCCCCCCOCCOCCOCCOCCOCCOCC(=O)NC(Cc1ccccc1)C(=O)Oc1ccc([N+](=O)[O-])cc1 (stereo unspecified)"
assayed_target = "KM12 colon"
recorded_result = "> 100 µM"

[[record]]
compound = "Clc1ccccc1NN(Cc1ccccn1)c1ccccc1Cl"
assayed_target = "KM12 colon"
recorded_result = "32.9 µM"

[[record]]
compound = "CSc1ccc(C2=Nn3c(nnc3-c3ccc(F)c(Cl)c3)SC2)cc1"
assayed_target = "KM12 colon"
recorded_result = "45.1 µM"


We now examine a further compound.
Could you please provide reported TGI for O=c1oc2ccccc2c(O)c1C=NC(=S)c1ccncc1 ? Thanks!
> 100 µM

###

Test system: MALME-3M melanoma
PROTOCOL TEXT: NCI tumour cell line growth inhibition, 48 h
PARAMETER: TGI

[[record]]
compound = "CCc1ccccc1NC(=O)C(=O)C(C(=O)c1ccc(OC)cc1)c1ccc(OC)cc1 (stereo unspecified)"
parameter = "TGI"
recorded_result = "> 100 µM"


We now examine a further compound.
Could you please provide reported TGI for CCOC(=O)C1(C(=O)OCC)CCC(C(OC)OC)C(CC(=O)OC)C1 (stereo unspecified) ? Thanks!
> 10 µM

###

System: SK-OV-3 ovarian
PROTOCOL TEXT: NCI tumour cell line growth inhibition, 48 h
Listed next: entries and their corresponding TGI.

Examples with answers:
[[record]]
compound = "Nc1cc2c3c(cccc3c1)NC2=O"
assayed_target = "SK-OV-3 ovarian"
recorded_result = "> 100 µM"

[[record]]
compound = "CCOc1ccc(NCC2CC/C(=C\\C=C\\c3ccccc3)C2=O)cc1 (stereo unspecified)"
assayed_target = "SK-OV-3 ovarian"
recorded_result = "> 100 µM"

[[record]]
compound = "COc1ccc(OC/C(N=Cc2ccncc2)=N/NC(=O)c2ccncc2)cc1"
assayed_target = "SK-OV-3 ovarian"
recorded_result = "> 100 µM"

[[record]]
compound = "c1c(N2CCOCC2)ssc1=[N+]1CCOCC1"
assayed_target = "SK-OV-3 ovarian"
recorded_result = "> 100 µM"


Quote SK-OV-3 ovarian TGI for entry C=C(C)C1CC2C(C)=C(OC(C)=O)C1n1c(=O)c3cc4ccccc4cc3c(=O)n12 (stereo unspecified) .
> 100 µM

Quote SK-OV-3 ovarian TGI for entry C/C(=N\O)c1ccc(Nc2cc(-n3nnc4ccccc43)nc3ccccc23)cc1 .
> 62.3 µM

###

Listed next: entries and their corresponding TGI.
Tested on: NCI/ADR-RES ovarian
PROTOCOL TEXT: NCI tumour cell line growth inhibition, 48 h

Examples with answers:
[[record]]
compound = "S=C(N/N=C/c1cc(Cl)cc(Cl)c1)NC12CC3CC(CC(C3)C1)C2"
parameter = "TGI"
recorded_result = "> 100 µM"

[[record]]
compound = "O=C1N/N=C\\c2ccc(cc2)OCc2cccc(n2)COc2ccc(cc2)/C=N\\NC1=O"
parameter = "TGI"
recorded_result = "> 25 µM"

[[record]]
compound = "CSc1ccc(/C=C2\\CNC/C(=C\\c3ccc(SC)cc3)C2=O)cc1"
parameter = "TGI"
recorded_result = "150 mg/L"

[[record]]
compound = "Cc1cc(S(=O)(=O)Nc2n[nH]c(Nc3ccccc3)n2)c(SCC(=O)O)cc1Cl"
parameter = "TGI"
recorded_result = "> 100 µM"


We now examine a further compound.
Could you please provide reported TGI for CON(C)C(=O)C(C)NC(=O)OCc1ccccc1 (stereo not given) ? Thanks!
> 100 µM

###

Listed next: entries and their corresponding TGI.
System: HOP-62 NSCLC
PROTOCOL TEXT: NCI tumour cell line growth inhibition, 48 h

Examples with answers:
[[record]]
compound = "Nc1c(C(=O)Nc2ccc([As](=O)(O)O)cc2)cnc2nnnn12"
assayed_target = "HOP-62 NSCLC"
recorded_result = "> 100 µM"

[[record]]
compound = "Cn1c2c(c3ccccc31)CCN1C(=O)C34CCCC3CC21S4 (centres undefined)"
assayed_target = "HOP-62 NSCLC"
recorded_result = "> 100 µM"

[[record]]
compound = "CCCO/N=[N+](\\[O-])N(CC)CC"
assayed_target = "HOP-62 NSCLC"
recorded_result = "> 100 µM"


Could you please provide reported TGI for CCOc1ccc(N=Nc2ccc3cc(/C(C)=N/NC(=O)/C(C#N)=C\c4ccc(N(CCC#N)CCC#N)cc4)c(=O)oc3c2)cc1 ? Thanks!
> 10 µM
